Biological target: human melanocortin-4 receptor (recombinant hMC4-R) (human, UniProt P32245 1-332)
Sequence (P32245 whole entry): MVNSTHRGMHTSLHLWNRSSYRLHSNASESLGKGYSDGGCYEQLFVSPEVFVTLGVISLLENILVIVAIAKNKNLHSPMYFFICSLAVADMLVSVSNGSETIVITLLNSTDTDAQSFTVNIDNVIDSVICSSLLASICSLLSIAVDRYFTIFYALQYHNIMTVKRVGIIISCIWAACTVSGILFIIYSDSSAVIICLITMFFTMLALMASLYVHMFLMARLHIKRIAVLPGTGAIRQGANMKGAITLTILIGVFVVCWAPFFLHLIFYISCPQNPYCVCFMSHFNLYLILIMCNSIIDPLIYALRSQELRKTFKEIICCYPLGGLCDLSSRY
Assay: cell-based or functional assay
Bridge positions count the residues as written; N and C are the ends. Square brackets hold non-standard residues; d marks the D form. Cit = NC(=O)NCCC[C@H](N)C(=O)O; Orn = NCCC[C@H](N)C(=O)O; Dab = NCC[C@H](N)C(=O)O
experimental.endpoint: Emax (%), cAMP
Give just the number in %; leave the unit off.

Worked examples, 4 binders total:
>  <binder>
Ac-RD[Orn][dF]RWK-OH (lactam 2-7) [Asp...Lys analog of peptide No. 7: Ac-Arg-cyclo(Asp-Orn-D-Phe-Arg-Trp-Lys)-OH]

>  <endpoint.unit>
%

>  <Emax (%), cAMP>
84

$$$$
>  <binder>
Ac-RDQ[dF]RWK-OH (lactam 2-7, also called Peptide Structure (Asp...Lys) in the row of No. 11) [Asp...Lys analog of peptide No. 11: Ac-Arg-cyclo(Asp-Gln-D-Phe-Arg-Trp-Lys)-OH]

>  <endpoint.unit>
%

>  <Emax (%), cAMP>
80

$$$$
>  <binder>
Ac-RD[Dab][dF]RWK-OH (lactam 2-7) [Asp...Lys analog of peptides No. 5 and No. 42: Ac-Arg-cyclo(Asp-Dab-D-Phe-Arg-Trp-Lys)-OH]

>  <endpoint.unit>
%

>  <Emax (%), cAMP>
91

$$$$
>  <binder>
Ac-RDQ[dF]RWK-NH2 (lactam 2-7) [Asp...Lys analog of peptides No. 12 and No. 44: Ac-Arg-cyclo(Asp-Gln-D-Phe-Arg-Trp-Lys)-NH2]

>  <endpoint.unit>
%

>  <Emax (%), cAMP>
85

$$$$

Next:
Query: Data request, read-out Emax (%), cAMP, for Ac-RE[Cit][dF]RW[Orn]-NH2 (lactam 2-7) [Peptide No. 15: Ac-Arg-cyclo(Glu-Cit-D-Phe-Arg-Trp-Orn)-NH2]
Result: 87
